# TEST PROTOCOL: folding stability dG unfold (combined trypsin and chymotrypsin); higher = more stable
Entries and their measured folding stability dG unfold follow.
Give the value, in units of kcal/mol, as a plain number.

Worked cases, folding stability dG unfold given:
SEQUENCE RECORD	UNIT INFO	folding stability dG unfold
SAGGSAGGSKNVKTVTIPFNNMSPSKFIEQIKNHPVDAIEIEMPDPWYRRFLNWLKDEGIKVISAGGSAGGS [r12_610_TrROS]	kcal/mol	1.49
SDNFQPDMTFPVTEIGDDKVTMKYNGKPYYIPTSKITSPNVTVKITDGTVSEVSSPSPSPLPPENIKKLSSA [r9_842_JUSTAS]	kcal/mol	-0.263
SAGGSAGGSSKTFKDPDGWTITVEPLDGGVKVEIYWPDGQRQEHLIPPGEPIKIDPNGWYIEISAGGSAGGS [r12_281_TrROS]	kcal/mol	1.69

# context switch: different sequence, same folding stability dG unfold
folding stability dG unfold measured on SAMKVTVKPTTLPDGTTVVVTTEPDKIVAYGTYNGDSFTSESLPDGTVVTTAKKPGGVLVTSPTDPNLESAG [r14_213_JUSTAS] = 0.265

* * *

# TEST PROTOCOL: folding stability dG unfold from trypsin proteolysis; higher = more stable
We begin with a simple list: items and their reported folding stability dG unfold.
Give the figure together with its unit, number first.

Example entries and their recorded answers appear below.
SEQUENCE RECORD	folding stability dG unfold
SAGGRFYFEAKDPSITPEELRAALEEAFGVKFHRIKPVEPLPDGMLYEVEIPEIGGHFDVSAEEIEKLLSAG [r5_550_TrMRF]	1.27 kcal/mol
SAGGSAGGSSVPEGWEVEREKVLEAEIVGEDGPVLRVRLYRVRVRPVDGPPRYFFELDVDDVDSAGGSAGGS [r12_544_TrMRF]	2.38 kcal/mol
SATFRLPNGKTISIMAPLPPGEMTPDQVISMARMIVRNIFPPGKKVEVKIEVEQYPNGMVHVKIPIKAESAG [r14_389_TrROS]	0.0799 kcal/mol
SAGGSAPPPIKIKFKYPNGRPMELEFNPENGNYEIKQPDGEKEEVPMENIKEIRIPPGIKDVEIVPSAGGSA [r15_1043_TrROS]	-0.579 kcal/mol
SAGGSAGGGMVKVTLRITYYNSTGPYTSDRVFELPPDEVEALIEAIPPPPDATPEVEVEREPLGSAGGSAGG [r6_428_JUSTAS]	0.8 kcal/mol
SAGGSASPEKVAEELKKKGYKEVKITKDPNTNVTTVTVEDPSGKKYTLTVDPKNPTVVSKKEFSLDSAGGSA [r15_648_JUSTAS]	0.926 kcal/mol
SAGGSAGGSPVLVRVYARDEDGNETPVAEIALPVENDNPEEAAKKAREIAKKLGVKEYRVEIESAGGSAGGS [r12_569_TrMRF]	1.37 kcal/mol
SAGGSAGGSKMVLKVTLENGKTIEIEAGETIEEIKAKIEEEFGKPVKIKVEKVSAEELGLKPESAGGSAGGS [r12_379_TrROS_Hall]	0.304 kcal/mol
SAGGMQALLRLPDTDEVVVLPDELLEAIASGDPERLAALPPEVREVISNVAELVVVPPPDGDPRPEGGSAGG [r13_233_TrMRF]	0.419 kcal/mol
SAGGSAGGSAGGSMVLTTTVEETVVDENGVETKITVKTYKLPDSEITLVTFPDGTVTPESAGGSAGGSAGGS [r10_404_JUSTAS]	0.493 kcal/mol

folding stability dG unfold reported for this sequence GMVLVRVELYRPDEEELVAEVEIPFPVPESLLENLSEEEREKLREEAEKAAEKLAEELGDVEVKPEIYTDLS [r1_115_TrMRF] : 0.147 kcal/mol

sequence SAGGSAGGSAGGFVLTFTLPDSVVRITLPEDANPEEIKQRLLEEHGVPIELRLIPPSNPLSAGGSAGGSAGG [r11_805_JUSTAS] , folding stability dG unfold observed: 0.726 kcal/mol

The reported folding stability dG unfold of the sequence SAGGSAGGSAVEEEVERIEKAVGVPIDPGSSVTKVKEGVEPVLPYRMDIKPGVESPELLLLSAGGSAGGSAG [r3_427_JUSTAS] was -0.908 kcal/mol

Value of measured folding stability dG unfold for the entry SANKNFYIIQIKWEIDGPDGRTLSFMIIVPRDDPDEFLKEAKDFIAEEFGYPIKKIEVDIHRIPPEDFPSAG [r14_104_TrROS] : 2.76 kcal/mol

folding stability dG unfold recorded for this sequence, SAGGSLKDMPVEDLAKYFARKMGYPITDVKVERNPDPPWIKINIEMEHPNDGRRHPHEIWIPKDDISAGGSA [r2_156_TrROS] , is 0.527 kcal/mol

// SAGGWTIREILEKNPNLREFAKEGWTIEIYYPNGKSGRVKIKEGSADDILDDINKNFPGPVEISITKSAGGS [r16_655_TrROS] : folding stability dG unfold value = 0.659 kcal/mol

Measured folding stability dG unfold, SALSASELAKRVRDRIKELSNEEGYNVDIKVDVQPNEDGSVTVHIQFDSPWMIKRIKEKLPPGVNVEIMSAG [r14_491_TrROS] : 3.15 kcal/mol

* * *

# TEST PROTOCOL: folding stability dG unfold from chymotrypsin proteolysis; higher = more stable
MEASURED PARAMETER: folding stability dG unfold (kcal/mol)
State the answer as a number, implicitly in kcal/mol.

SEQUENCE RECORD	folding stability dG unfold, kcal/mol
SAGGSAGGSAGGMTVERREVFPLGESLVITETREVLDPSSDVPVTVETRVEVLPPEVPPSAGGSAGGSAGGS [r10_599_JUSTAS]	0.25

// folding stability dG unfold value for SAGGSAAKIDPKNGTITIYNKKTGKKIKIKIKNLPPGAKVTIEIKNGKITIKVDGKTIEINIKEIKSAGGSA [r15_864_TrROS_Hall] : 3.19

// recorded folding stability dG unfold for SAKKYIIRVKVKINGKEYEIEIEADSLEEALAKLKEELKKLFPGEKIEEVKIEVYDAKTGEKKEITLKLSAG [r14_54_TrROS_Hall] : 4.2

PETVTLTVEIEIEVRGPDGKPLTPEQVEELAKALAEELAAELGLEVEVTVTVEPVGPDGKYRITVTVTIRPS [r1_231_TrROS_Hall] has a reported folding stability dG unfold of 5.69

* * *

# TEST PROTOCOL: folding stability dG unfold from trypsin proteolysis; higher = more stable
Classify by measured folding stability dG unfold: YES if it is equal to or exceeds 2 kcal/mol, NO if it is smaller.

Solved entries:
SEQUENCE RECORD	CLASS LABEL
SAGGSAEQTATIESVEYNEETGELTIRIRLENGEEVEITVKPDGTITITLPPGAKITEIEIERLPPSAGGSA [r15_959_TrROS_Hall]	NO
SAGGSAGGDEVKIEVEVKKVKVKVRVRVKNEDGEEKEVEKEFEVEVVKVKIEFKSPEEAKKLGLSAGGSAGG [r6_149_TrROS_Hall]	NO
SAGGSVEVEPLPNGLLRVTTVFSESKTPILRKLTYKDENGKPLGTKLELLPEEVEVESVTELLPPELLSAGG [r13_848_JUSTAS]	NO
SAGGSMTITITNEDGSTYEITVEEENGKLRITITVDGKTVEIEFDKETGKITIRYNGKTFTLTIKPSAGGSA [r2_194_TrROS_Hall]	YES
SAAPTSSGPISLNKPEILTITSVEADPETGTITTPTRVELTEEELDPFNPEIPTFKKKYLDVTLTTPTSSAG [r14_888_JUSTAS]	NO

In plain terms: is recorded folding stability dG unfold at least 2 kcal/mol for SAGSVTTITDPAGTTTEIQPLPDGSLLTTTTTHTTNPATGGATTTTTTTLVSPVPGQPSTTTSTTTTPASAG [r5_424_JUSTAS] ?
NO

Does the sequence SAGGSAGGSAGKTIKILLVVKDPETNEYYFLVMEIHLDENGNLHMKIKVFPTKEDAEKALSAGGSAGGSAGG [r11_792_TrROS_Hall] have recorded folding stability dG unfold that is 2 kcal/mol or more?
YES

* * *

# TEST PROTOCOL: folding stability dG unfold from trypsin proteolysis; higher = more stable
MEASURED PARAMETER: folding stability dG unfold (kcal/mol)
Numbers only here, please. The scale is kcal/mol.

SEQUENCE RECORD	folding stability dG unfold [kcal/mol]
SAGGSMSAEELREKIAADPRISLDDVTVTVTRTPDSVTVTVTLKDPNDPVYVEAEERARALFAELASAGGSA [r2_3_JUSTAS]	0.704
SAGGSAGGSMVKTFPESEPGERVTRELILTPDSIEIVETVVKTDPATGKPVEEVLLRRSTLPLSAGGSAGGS [r12_70_JUSTAS]	-0.747
SAGPNKPYKIRVSIMHPGKWREHEIDIDPGEDIEEALDEIMDKLPPNWMIMIHYANGEMIMIPIPPEMISAG [r5_77_TrROS]	1.72
SAGGSAGGSAGGKSYTDPNSNTVTTLDEGPGFGKVTTTTYKPEEPVPLETTESIIGPVLSSAGGSAGGSAGG [r7_343_JUSTAS]	0.367
SAGGSAGGSAGVPEGEEYLFTVKVTLTFEPVTVKDENGEEHEIDEVTITVTVTVLVKAEDSAGGSAGGSAGG [r11_907_TrROS_Hall]	2.33
SLKPGEWVMFMFTIPITIRITKDDLPPGWKIKEVTIRIYVMFLFRVDPDGNFKILSFNIMIEIEVKYEPDSA [r9_747_TrROS]	4.52

So, SAGGSAGGSAKKKYVFTIPVKPNTFNPEKLKKFIEKAFPEFKNYEIKVEVLPDGTAKVYIEASAGGSAGGSA [r18_65_TrMRF] ? Its folding stability dG unfold was 2.69

The reported value for SAGGSAGGSAGGPKIDHVMLHRNPGNGRYNVTIKLRDPNGKPKDTIMVPMNDPEKILDALSAGGSAGGSAGG [r7_484_TrROS] in terms of folding stability dG unfold is -0.0862

So, SAGGMTTTTVEVKRLPNGSIERTLKTTVPLPNGDLVVTTTKSIVYREDGKVVKEEVLETETTLLPATSAGGS [r8_36_JUSTAS] ? Its folding stability dG unfold was 2.58

The sequence listed as SAGGSAGGSAGGTPITDEEFRDLPDDVKLVFENGEVAYVPRDPLKVPIGADKTVTAEPVPSAGGSAGGSAGG [r7_643_TrMRF] has a reported folding stability dG unfold of 1.2

Value of measured folding stability dG unfold for the entry SAGGSAGGSPYLVTVTLPDGSTLTHTIPVPPDVPLSEEEIRERIRREYPGPPLGPITIERPTESAGGSAGGS [r12_262_JUSTAS] : 0.885
